For each of the molecules below, state its GI50.
System: human epidermal keratinocytes, neonatal, or HEKn cells (wild-type ERBB1)
Assay: Cell proliferation assay, HEKn
Type: cell-based
Conditions: Keratinocyte, 72 hrs

Ask: State the recorded GI50 for this entry: Cc1cc(C(=O)Nc2nc3cc(OC(F)(F)F)cc(Cl)c3n2[C@@H]2CCCCN(C(=O)/C=C/CN(C)C)C2)ccn1
Reply: 1 to 5 µM

Ask: Would you kindly repeat that for C=CC(=O)N1CCCC[C@@H](n2c(NC(=O)c3ccnc(C)c3)nc3ccc4c(c32)OCCO4)C1 ?
Reply: 1 to 5 µM

Ask: Next: C=CC(=O)N1CCCC[C@@H](n2c(NC(=O)c3ccnc(C)c3)nc3cccc(OC4CCN(CC)CC4)c32)C1
Reply: 1 to 5 µM

Ask: Also C=CC(=O)N1CCCC[C@@H](n2c(NC(=O)c3ccnc(C)c3)nc3cc(OC(F)(F)F)cc(Cl)c32)C1 ?
Reply: 1 to 5 µM

Ask: Similarly, C=CC(=O)N1CCCC[C@@H](n2c(NC(=O)c3ccnc(C(F)(F)F)c3)nc3ccc4c(c32)OCCO4)C1 ?
Reply: > 5 µM

Ask: Repeat with C=CC(=O)N1CCC(Oc2cccc3nc(NC(=O)c4ccnc(C)c4)n([C@@H]4CCCCN(C(=O)C=C)C4)c23)CC1
Reply: 1 to 5 µM

Ask: Request: C=CC(=O)N1CCCC[C@@H](n2c(NC(=O)c3ccnc(OC)c3)nc3ccc4c(c32)OCCO4)C1
Reply: 1 to 5 µM

Ask: Request: C=CC(=O)N1CCCC[C@@H](n2c(NC(=O)c3ccnc(C)c3)nc3cccc(OC4CCN(C(C)=O)CC4)c32)C1
Reply: > 5 µM

Reference source: patent US20230271938A1
